Please provide measured IC50 for the entries that follow.
- Study System: c-kit kinase (Homo sapiens)
- Construct: The c-kit (or kinase domain thereof) is an active kinase in AlphaScreen; poly-Histidine tag (in-house protein only) (cleaved yes); host or cells: E. coli BL21(DE3)RIL, co-expressed with PTP1B
- Test Name: c-Kit biochemical assay, AlphaScreen, 10 μM ATP
- Condition Notes: c-kit biochemical inhibitory activity; read-out: Biochemical activity (IC50 μM) Kit

Data request: Checklist item: IC50 tested on c-kit kinase (Homo sapiens), entry Cc1nn(C)c(C)c1-c1cc2ncnc(N3CCN(C(=O)NCc4ccc(F)cc4)CC3)c2s1 [P-0618] , value?
Data returned: 1 to 10 µM

Data request: Also Cc1cc2c(N3CCN(C(=O)N[C@@H](C)c4cccc(OC(F)F)c4)C(C)(C)C3)ncnc2[nH]1 [P-0645] ?
Data returned: 10 to 200 µM

Data request: Also COc1ccc(NC(=O)N2CCN(c3ncnc4[nH]c(-c5ccccc5)cc34)CC2)cc1 [P-0240] ?
Data returned: 10 to 200 µM

Data request: Also Cc1cccc(S(=O)(=O)Nc2ccc(-c3ncnc4[nH]c(C)cc34)cc2)c1 [P-0283] ?
Data returned: 10 to 200 µM

----------
- Study System: c-kit kinase (Homo sapiens, UniProt P10721)
- Construct: The c-kit (or kinase domain thereof) is an active kinase in AlphaScreen; poly-Histidine tag (in-house protein only) (cleaved yes); host or cells: E. coli BL21(DE3)RIL, co-expressed with PTP1B
- Sequence (P10721 26-976): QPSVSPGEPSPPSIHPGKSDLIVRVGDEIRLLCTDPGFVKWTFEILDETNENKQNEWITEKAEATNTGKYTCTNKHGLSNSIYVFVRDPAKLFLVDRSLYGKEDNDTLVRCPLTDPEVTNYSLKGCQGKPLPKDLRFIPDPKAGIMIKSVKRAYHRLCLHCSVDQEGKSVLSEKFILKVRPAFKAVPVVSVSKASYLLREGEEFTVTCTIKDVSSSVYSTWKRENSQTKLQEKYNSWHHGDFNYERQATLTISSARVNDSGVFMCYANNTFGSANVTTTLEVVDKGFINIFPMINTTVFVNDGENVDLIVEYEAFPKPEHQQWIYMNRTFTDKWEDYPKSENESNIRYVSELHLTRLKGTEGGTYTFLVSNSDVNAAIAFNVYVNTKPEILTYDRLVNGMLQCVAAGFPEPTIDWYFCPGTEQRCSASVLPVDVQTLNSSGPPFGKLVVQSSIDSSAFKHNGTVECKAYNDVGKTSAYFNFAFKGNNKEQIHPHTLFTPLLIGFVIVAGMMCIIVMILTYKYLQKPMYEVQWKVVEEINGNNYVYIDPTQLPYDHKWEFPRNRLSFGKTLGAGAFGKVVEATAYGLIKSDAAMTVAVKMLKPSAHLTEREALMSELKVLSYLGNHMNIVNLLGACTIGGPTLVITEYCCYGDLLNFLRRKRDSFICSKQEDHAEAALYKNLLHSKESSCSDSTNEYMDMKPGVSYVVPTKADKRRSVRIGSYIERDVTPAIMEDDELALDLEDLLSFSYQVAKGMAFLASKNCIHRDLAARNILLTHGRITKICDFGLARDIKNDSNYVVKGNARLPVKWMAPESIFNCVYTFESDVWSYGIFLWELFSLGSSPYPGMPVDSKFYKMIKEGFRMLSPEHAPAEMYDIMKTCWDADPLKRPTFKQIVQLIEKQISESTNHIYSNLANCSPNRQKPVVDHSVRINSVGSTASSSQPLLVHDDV
- Test Name: c-Kit biochemical assay, AlphaScreen, 10 μM ATP
- Condition Notes: c-kit biochemical inhibitory activity; read-out: Biochemical activity (IC50 μM) Kit
Please provide measured IC50 for the entries that follow.

Data request: // returns reported IC50 for input O=C(Nc1cccc(C(F)(F)F)c1)N1CCN(c2ncnc3[nH]ccc23)CC1
Data returned: 10 to 200 µM

Data request: Also CCCS(=O)(=O)Nc1ccc(-c2ncnc3[nH]c(-c4ccc(F)cc4)cc23)c(F)c1 ?
Data returned: 1 to 10 µM

Data request: Also C[C@@H]1CN(c2ncnc3cc(-c4ccc(F)cc4)sc23)CCN1C(=O)N[C@H](C)c1ccc(F)cc1 ?
Data returned: 10 to 200 µM

Data request: Also CCCS(=O)(=O)Nc1ccc(-c2ncnc3[nH]c(-c4ccc(F)cc4)cc23)cc1F ?
Data returned: 0.0001 to 1 µM

Data request: Also CC(C)(C)c1cc2ncnc(N3CCN(C(=O)NCc4ccc(F)cc4)CC3)c2s1 ?
Data returned: 10 to 200 µM

Data request: Also O=C(Nc1ccc(OC(F)(F)F)cc1)N1CCN(c2ncnc3[nH]c(-c4ccncc4)cc23)CC1 ?
Data returned: 0.0001 to 1 µM

Data request: Also C[C@H]1CN(c2ncnc3[nH]c(-c4ccncc4)cc23)CCN1C(=O)Nc1ccc(OC(F)(F)F)cc1 ?
Data returned: 0.0001 to 1 µM

Data request: Also Cc1nn(C)cc1-c1cc2c(N3CCN(C(=O)N[C@@H](C)c4ccc(F)cc4)C(C)(C)C3)ncnc2[nH]1 ?
Data returned: 0.0001 to 1 µM

----------
- Study System: c-kit kinase (Homo sapiens)
- Construct: The c-kit (or kinase domain thereof) is an active kinase in AlphaScreen; poly-Histidine tag (in-house protein only) (cleaved yes); host or cells: E. coli BL21(DE3)RIL, co-expressed with PTP1B
- Test Name: c-Kit biochemical assay, AlphaScreen, 10 μM ATP
- Condition Notes: c-kit biochemical inhibitory activity; read-out: Biochemical activity (IC50 μM) Kit
Please provide measured IC50 for the entries that follow.

Data request: // returns reported IC50 for input O=S(=O)(Nc1ccc(-c2ncnc3[nH]c(-c4ccc(F)cc4)cc23)cc1)c1ccc(F)cc1 [P-0404]
Data returned: 0.0001 to 1 µM

Data request: Also Cc1ccc(S(=O)(=O)Nc2ccc(-c3ncnc4[nH]c(-c5ccc(F)cc5)cc34)cc2)cc1 [P-0433] ?
Data returned: 0.0001 to 1 µM

Data request: Also Cc1nn(C)cc1-c1cc2c(N3CCN(C(=O)N[C@@H](C)c4ccc(Cl)cc4)[C@H](C)C3)ncnc2[nH]1 [P-0718] ?
Data returned: 0.0001 to 1 µM

Data request: Also O=C(NCc1ccc(Cl)cc1)N1CCN(c2ncnc3[nH]c(-c4ccccc4)cc23)CC1 [P-0215] ?
Data returned: 10 to 200 µM

Data request: Also Cc1nn(C)cc1-c1cc2c(N3CCN(C(=O)N[C@@H](C)c4ccc(F)cc4)[C@H](C)C3)ncnc2[nH]1 [P-0715] ?
Data returned: 1 to 10 µM

Data request: Also CS(=O)(=O)c1ccc(-c2ncnc3[nH]c(-c4ccc(F)cc4)cc23)cc1 [P-0391] ?
Data returned: 1 to 10 µM

Data request: Also CS(=O)(=O)Nc1ccc(-c2ncnc3[nH]c(-c4ccc(F)cc4)cc23)c(F)c1 [P-0398] ?
Data returned: 0.0001 to 1 µM

Data request: Also COc1cc(-c2cc3c(N4CCC(NS(=O)(=O)c5ccc(OC(F)(F)F)cc5)CC4)ncnc3[nH]2)ccn1 [P-0460] ?
Data returned: 10 to 200 µM

----------
- Study System: c-kit mutant D816V (Homo sapiens, UniProt P10721, D816V/DEL694-753)
- Construct: residues 551-934, kinase insertion domain residues 694-753 deleted; 6x-histidine (N); made in house; host or cells: E. coli Arctic Express (DE3) RIL (Stratagene)
- Sequence (P10721 with tags, fused parts or gaps DEL694-753/D816V): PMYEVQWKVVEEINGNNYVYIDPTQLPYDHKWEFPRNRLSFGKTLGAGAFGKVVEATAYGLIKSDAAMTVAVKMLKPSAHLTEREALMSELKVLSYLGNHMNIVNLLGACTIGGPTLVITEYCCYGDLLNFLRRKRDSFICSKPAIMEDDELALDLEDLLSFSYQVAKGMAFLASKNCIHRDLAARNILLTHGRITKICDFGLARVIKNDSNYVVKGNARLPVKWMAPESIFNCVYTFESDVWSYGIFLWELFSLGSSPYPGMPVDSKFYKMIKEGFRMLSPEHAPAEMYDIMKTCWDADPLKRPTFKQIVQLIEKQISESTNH
- Test Name: c-Kit mutant D816V biochemical assay, AlphaScreen
- Condition Notes: c-kit D816V biochemical inhibitory activity; read-out: Biochemical activity (IC50 μM) Kit D816V
Please provide measured IC50 for the entries that follow.

Data request: // returns reported IC50 for input CCCCS(=O)(=O)Nc1ccc(-c2ncnc3[nH]c(-c4ccc(F)cc4)cc23)cc1 [P-0419]
Data returned: 0.0001 to 1 µM

Data request: Also Cc1nn(C)cc1-c1cc2ncnc(N3CCN(C(=O)N[C@@H](C)c4ccc(F)cc4)[C@H](C)C3)c2s1 [P-0599] ?
Data returned: 0.0001 to 1 µM

Data request: Also COc1cccc([C@H](C)NC(=O)N2CCN(c3ncnc4[nH]c(-c5ccc(Cl)cc5)cc34)CC2)c1 [P-0038] ?
Data returned: 0.0001 to 1 µM

Data request: Also Cc1nn(C)cc1-c1cc2ncnc(N3CCN(C(=O)N[C@@H](C)c4cccc(OC(F)F)c4)[C@H](C)C3)c2s1 [P-0587] ?
Data returned: 0.0001 to 1 µM

Data request: Also Cc1cc2c(-c3ccc(NS(=O)(=O)c4ccc(F)cc4)c(F)c3)ncnc2[nH]1 [P-0346] ?
Data returned: 1 to 10 µM

Data request: Also Cn1cc(-c2cc3c(N4CCN(C(=O)Nc5ccc(F)cc5)CC4)ncnc3[nH]2)cn1 [P-0096] ?
Data returned: 0.0001 to 1 µM

Data request: Also CCOc1ccc(NC(=O)N2CCN(c3ncnc4[nH]c(C)cc34)CC2)cc1 [P-0181] ?
Data returned: 10 to 200 µM

Data request: Also C[C@H](NC(=O)N1CCN(c2ncnc3cc(N4CCOCC4)sc23)CC1(C)C)c1cccc(Cl)c1 [P-0558] ?
Data returned: 0.0001 to 1 µM

----------
- Study System: c-kit mutant D816V (Homo sapiens, UniProt P10721, D816V/DEL694-753)
- Construct: residues 551-934, kinase insertion domain residues 694-753 deleted; 6x-histidine (N); made in house; host or cells: E. coli Arctic Express (DE3) RIL (Stratagene)
- Test Name: c-Kit mutant D816V biochemical assay, AlphaScreen
- Condition Notes: c-kit D816V biochemical inhibitory activity; read-out: Biochemical activity (IC50 μM) Kit D816V
Please provide measured IC50 for the entries that follow.

Data request: // returns reported IC50 for input C[C@H](NC(=O)N1CCN(c2ncnc3[nH]c(-c4ccncc4)cc23)C[C@@H]1C)c1ccc(F)cc1
Data returned: 0.0001 to 1 µM

Data request: Also Cc1csc(S(=O)(=O)Nc2ccc(-c3ncnc4[nH]c(C)cc34)cc2)c1 ?
Data returned: 1 to 10 µM

Data request: Also Cc1ccc(NS(=O)(=O)N2CCN(c3ncnc4[nH]c(-c5ccc(Cl)cc5)cc34)CC2)cc1 ?
Data returned: 10 to 200 µM

Data request: Also Cc1cc2c(-c3ccc(NS(=O)(=O)c4ccc5c(c4)OCO5)cc3)ncnc2[nH]1 ?
Data returned: 0.0001 to 1 µM

----------
- Study System: c-kit kinase (Homo sapiens, UniProt P10721)
- Construct: The c-kit (or kinase domain thereof) is an active kinase in AlphaScreen; poly-Histidine tag (in-house protein only) (cleaved yes); host or cells: E. coli BL21(DE3)RIL, co-expressed with PTP1B
- Test Name: c-Kit biochemical assay, AlphaScreen, 10 μM ATP
- Condition Notes: c-kit biochemical inhibitory activity; read-out: Biochemical activity (IC50 μM) Kit
Measured Parameter: IC50

Data request: // returns reported IC50 for input [2H]C([2H])([2H])Oc1cccc([C@H](C)NC(=O)N2CCN(c3ncnc4[nH]c(-c5ccc(F)cc5)cc34)CC2)c1
Data returned: 1 to 10 µM

Data request: Also Cc1nn(C)cc1-c1cc2ncnc(N3CCN(C(=O)NCc4ccc(F)cc4)[C@H](C)C3)c2s1 ?
Data returned: 1 to 10 µM

Data request: Also Cc1nn(C)cc1-c1cc2ncnc(C3CCNCC3)c2s1 ?
Data returned: 1 to 10 µM

Data request: Also CS(=O)(=O)Nc1ccc(-c2ncnc3cc(C4=CCN(C(=O)N5CCOCC5)CC4)sc23)cc1 ?
Data returned: 0.0001 to 1 µM

Data request: Also Cc1ccc(-c2cc3c(N4CCN(C(=O)N[C@@H](C)c5cccc(OC(F)F)c5)C(C)(C)C4)ncnc3[nH]2)cn1 ?
Data returned: 1 to 10 µM

Data request: Also O=C(Nc1ccc(F)c(Cl)c1)N1CCN(c2ncnc3[nH]ccc23)CC1 ?
Data returned: 1 to 10 µM

Data request: Also N#Cc1cccc(-c2cc3c(N4CCN(C(=O)Nc5ccc(OC(F)(F)F)cc5)CC4)ncnc3[nH]2)c1 ?
Data returned: 10 to 200 µM

Data request: Also Cc1ccc(-c2cc3c(N4CCN(C(=O)N[C@@H](C)c5cccc(Cl)c5)C(C)(C)C4)ncnc3[nH]2)cn1 ?
Data returned: 1 to 10 µM
